# TEST_SYSTEM: UniProtKB P49116
# Sequence (P49116 whole entry): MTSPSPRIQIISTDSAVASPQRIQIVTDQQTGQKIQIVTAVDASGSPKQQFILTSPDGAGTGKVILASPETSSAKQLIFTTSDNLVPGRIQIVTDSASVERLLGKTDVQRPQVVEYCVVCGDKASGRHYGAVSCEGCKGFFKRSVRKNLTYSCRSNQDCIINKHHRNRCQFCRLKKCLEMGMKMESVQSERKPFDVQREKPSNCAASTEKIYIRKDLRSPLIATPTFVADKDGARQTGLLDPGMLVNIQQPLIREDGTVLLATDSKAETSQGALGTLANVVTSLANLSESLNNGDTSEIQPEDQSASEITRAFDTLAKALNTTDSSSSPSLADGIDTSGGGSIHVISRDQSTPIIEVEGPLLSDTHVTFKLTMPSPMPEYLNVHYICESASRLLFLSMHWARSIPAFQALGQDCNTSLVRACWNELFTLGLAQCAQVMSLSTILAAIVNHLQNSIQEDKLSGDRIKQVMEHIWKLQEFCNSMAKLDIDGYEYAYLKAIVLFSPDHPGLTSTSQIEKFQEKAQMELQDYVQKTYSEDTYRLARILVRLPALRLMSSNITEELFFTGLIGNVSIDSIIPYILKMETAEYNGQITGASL
# ASSAY: Dual-luciferase reporter assay of TR4 transactivation
pEC50: −log10 of the molar value.
PROPERTY_MEASURED: pEC50

> print(dat)
                                   molecule  measured
1  Cc1cn(-c2cc(NC(=O)c3ccc(C)c(Nc4nccc(-c5cccnc5)n4)c3)cc(C(F)(F)F)c2)cn1 [Nilotinib (AMN-107)]      5.98

[1] C=C(c1ccc(C(=O)O)cc1)c1cc2c(cc1C)C(C)(C)CCC2(C)C [bexarotene]
[2] O=c1c(-c2ccc(O)cc2)coc2cc(O)cc(O)c12 [Genistein]
In: Between 1 and 2 , which one shows the smaller pEC50 number? Please respond with the label that marks your chosen entry.
Out: 1
(1: 4.43, 2: 5.62)
